Exercise: for every item that follows, state its recorded glycan array binding signal (z-score).
Target: Neu5Ac(a2-8)Neu5Ac(a2-8)Neu5Ac(a2-3)[GalNAc(b1-4)]Gal(b1-4)Glc
Assay: glycan array binding signal (z-score within array); higher = stronger binding
Settings: glycan notation: IUPAC condensed, linker removed
Many of the other results were omitted from the sample, so the strongest signals are more common in it than they were.
Provide a numeric answer; units are not to be included.

Consider the binder RNase 1 (Homo sapiens) (protein) KESRAKKFQRQHMDSDSSPSSSSTYCNQMMRRRNMTQGRCKPVNTFVHEPLVDVQNVCFQEKVTCKNGQGNCYKSNSSMHITDCRLTNGSRYPNCAYRTSPKERHIIVACEGSPYVPVHFDASVEDST and give its recorded glycan array binding signal (z-score).
-0.187

Annotate the binder LFA (Limax flavus) (protein) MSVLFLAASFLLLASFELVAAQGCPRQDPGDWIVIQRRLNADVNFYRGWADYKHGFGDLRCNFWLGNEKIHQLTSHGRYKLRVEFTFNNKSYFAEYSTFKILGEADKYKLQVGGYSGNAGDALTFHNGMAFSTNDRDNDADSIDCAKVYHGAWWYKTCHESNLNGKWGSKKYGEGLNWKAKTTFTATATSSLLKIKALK with its measured glycan array binding signal (z-score).
0.236

Retrieve glycan array binding signal (z-score) measured for ArathEULS3 TAP (Arabidopsis thaliana) (protein) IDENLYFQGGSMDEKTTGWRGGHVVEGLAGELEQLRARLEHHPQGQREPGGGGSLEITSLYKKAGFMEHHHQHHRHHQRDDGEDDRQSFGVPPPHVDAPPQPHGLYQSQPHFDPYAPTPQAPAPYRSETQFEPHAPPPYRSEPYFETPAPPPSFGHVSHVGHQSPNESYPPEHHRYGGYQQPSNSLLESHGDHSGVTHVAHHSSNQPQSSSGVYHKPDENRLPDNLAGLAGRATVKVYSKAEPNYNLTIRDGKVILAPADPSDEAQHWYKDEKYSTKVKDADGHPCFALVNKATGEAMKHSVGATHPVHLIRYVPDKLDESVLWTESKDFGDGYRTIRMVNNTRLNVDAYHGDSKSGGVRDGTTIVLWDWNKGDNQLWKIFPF and print it.
-0.112

Report glycan array binding signal (z-score), nothing else, for this binder: Tectonin 2 (Laccaria bicolor) (protein) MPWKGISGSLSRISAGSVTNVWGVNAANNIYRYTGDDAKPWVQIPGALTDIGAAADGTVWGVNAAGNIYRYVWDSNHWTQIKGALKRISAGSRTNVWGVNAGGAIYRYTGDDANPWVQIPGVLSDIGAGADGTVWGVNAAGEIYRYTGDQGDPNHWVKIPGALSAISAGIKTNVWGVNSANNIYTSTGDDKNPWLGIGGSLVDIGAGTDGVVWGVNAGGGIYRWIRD
-0.445

Give me measured glycan array binding signal (z-score), please, for this binder: ERGIC1-EDTA (Homo sapiens), Q969X5 (protein) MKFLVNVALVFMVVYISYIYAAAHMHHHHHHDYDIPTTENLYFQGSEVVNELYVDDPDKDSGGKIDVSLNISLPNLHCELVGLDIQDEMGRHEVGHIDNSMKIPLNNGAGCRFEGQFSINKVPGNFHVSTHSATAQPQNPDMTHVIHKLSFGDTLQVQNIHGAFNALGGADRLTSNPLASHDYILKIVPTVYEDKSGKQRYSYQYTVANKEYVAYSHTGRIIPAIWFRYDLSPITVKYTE
0.592
